System: Fibroblast
Test: Multiplex assay against human fibroblast
Format: toxicity, cell-based
Conditions: 12 h, 10 µM, compound concentration 10 uM, replicate 1
Returns 1 (yes) if the recorded Population Healthy Nuclei (%) is greater than or equal to 30%, and 0 (no) otherwise.

# Compound, Study system, Assigned category
records = [
    ("CNC(=O)Nc1ccc(-c2nc(N3CC4CCC(C3)O4)c3cnn(C4CCC5(CC4)OCCO5)c3n2)cc1", "Fibroblast", "0 (no)"),
    ("CC(C)Oc1ccccc1C(=O)Nc1ccccc1C(=O)Nc1cccc(S(=O)(=O)C(F)(F)F)c1", "Fibroblast", "1 (yes)"),
    ("CC(C)NC(=O)N1CC[C@H](NC2=Nc3cc(F)ccc3N(CC(F)F)c3ccc(Cl)cc32)C1", "Fibroblast", "1 (yes)"),
    ("CC1=C(C(=O)Nc2cc3cn[nH]c3cc2F)C(c2ccc(C(F)(F)F)cc2)CC(=O)N1 (stereo not drawn)", "Fibroblast", "1 (yes)"),
    ("Cc1nc(N2CC[C@H](O)C2)ncc1-c1cc(C(F)(F)F)cc2[nH]ncc12", "Fibroblast", "1 (yes)"),
    ("C=CC(=O)Nc1cccc(Sc2nc(Nc3ccc(N4CCN(C)CC4)cc3)ncc2Cl)c1", "Fibroblast", "1 (yes)"),
    ("COc1ccc(-c2ccc3ncc4c(c3c2)n(-c2ccc(N3CCNCC3)c(C(F)(F)F)c2)c(=O)n4C)cn1.O=C(O)/C=C\\C(=O)O", "Fibroblast", "0 (no)"),
    ("Cc1cccc(CN2CCN(C(c3ccccc3)c3ccc(Cl)cc3)CC2)c1.Cl.Cl (stereo not drawn)", "Fibroblast", "1 (yes)"),
]

* * *

Listed compounds paired with reported Growth Rate
System: U2OS
Test: Incucyte cell viability with U2OS; also: filed as whole numbers so only -1 and 0 and 1 occur
Type: toxicity, cell-based
Conditions: human, 12 h, 10 µM, compound concentration 10 uM, replicate number 1, timepoint 12 hours

# Compound, Study system, Growth Rate
records = [
    ("CN1CCN(Cc2ccc(Nc3ncc(Cl)c(Nc4ccccc4S(=O)(=O)N(C)C)n3)cc2)CC1", "U2OS", 0),
    ("O=C(NCc1ncc(C(F)(F)F)cc1Cl)c1ccc2c(c1)C1(CCS(=O)(=O)CC1)[C@@H](C1CC1)N2S(=O)(=O)c1ccc(F)cc1", "U2OS", 1),
    ("CN(C)C(=O)Cn1cc(-c2nc([C@@](C)(c3ccc(-c4cnc(N)nc4)cc3)C3CC3)no2)cn1", "U2OS", 1),
    ("Cc1ccc2c(c1)c1c(n2CCc2ccc(C)nc2)CCN(C)C1 [LATREPIRDINE]", "U2OS", 1),
    ("Cc1cc(C)c(-n2ccn3nc(-c4cccnc4)cc23)cc1NC(=O)c1cc(C#N)cc(S(F)(F)(F)(F)F)c1", "U2OS", 0),
    ("COC(=O)/C=C/c1cccc(N(Cc2ccc(-c3ccc(N(C)C)cc3)cc2)C(=O)C2CCCCC2)c1", "U2OS", 1),
    ("C[C@H](c1ccc(F)cc1)N(Cc1cccc(C(=O)O)c1)C(=O)c1cnc2ccccc2c1", "U2OS", 0),
    ("O=C(N[C@@H](C1CC1)C(F)(F)F)c1cc(-c2cnn3cc(-c4ccc(F)cc4)cnc23)cs1", "U2OS", 0),
    ("Cc1nc(N2CC[C@H](O)C2)ncc1-c1cc(C(F)(F)F)cc2[nH]ncc12", "U2OS", 1),
    ("C=CC(=O)Nc1ccc2[nH]c(=O)n(C3CCN(Cc4ccc(-c5nc6cc[nH]c(=O)c6cc5-c5ccccc5)cc4)CC3)c2c1", "U2OS", 1),
    ("COc1ccc(S(=O)(=O)N2c3ccc(Cl)cc3[C@](O)(c3ccccc3Cl)[C@@H]2C(=O)N2CCC[C@H]2C(N)=O)cc1OC", "U2OS", 0),
    ("C[C@H](NC[C@H](O)CP(=O)(O)CC1CCCCC1)c1ccc(Cl)c(Cl)c1.Cl", "U2OS", 1),
    ("Cl.O=C(O)c1cc(-c2ccc(C3CCNCC3)cc2)c2ccc(-c3ccc(C(F)(F)F)cc3)cc2c1", "U2OS", 0),
    ("O=C(O)C1CN(Cc2ccc(-c3nc4cc(Cc5ccccc5F)ccc4s3)c(F)c2)C1", "U2OS", 1),
    ("C=CC(=O)Nc1cccc(Oc2nc(Nc3ccc(N4CCN(C)CC4)cc3OC)ncc2Cl)c1", "U2OS", 0),
    ("CNC(=O)c1ccc(Nc2ncc(C(F)(F)F)c(NCc3nccnc3N(C)S(C)(=O)=O)n2)cc1", "U2OS", 0),
]
